test system: Plasmodium falciparum; assay: GSK_TCMDC: Inhibition of Plasmodium falciparum 3D7 in whole erythrocytes, using parasite LDH activity as an index of growth.; type: functional, organism-based; conditions: Plasmodium falciparum, 3D7
Field 'label' (enum: yes / no). Set to yes when XC50 is strictly under 700 nM; else no.

Below are worked cases with known answers.
>>> print(df.to_string())
                                   compound      target_under_test  assigned_category
0      CNC(=O)c1ccccc1Nc1nc(Nc2cccnc2)ncc1C  Plasmodium falciparum                yes
1  CC[C@H](C)CNC(=O)c1ccnc(-c2ccc(CNCCCc3ccccc3)cc2)c1  Plasmodium falciparum                 no
2  O=C(Cc1ccccc1)NC1(c2ccccc2)CCN(CCc2c[nH]c3ccc(F)cc23)CC1  Plasmodium falciparum                 no
3  CCC[C@@H]([C@@H](CC1CCCCC1)C(=O)N[C@H](C(=O)Nc1nccs1)C(C)(C)SCCOCCOCC)N(O)C=O  Plasmodium falciparum                yes
4  CC(C)(C)SCC(O)Cn1c2ccc(Br)cc2c2cc(Br)ccc21 (stereo not given)  Plasmodium falciparum                 no
5  COc1ccc(-c2ccnc(-c3cccc(-c4ccccn4)n3)c2)cc1  Plasmodium falciparum                 no
6  CC(=O)c1cccc2c(NC(=O)Nc3ccc4nccc(N5CCN(C)CC5)c4c3)cccc12  Plasmodium falciparum                yes
7  Oc1ccc2[nH]cc(C3CCN(CCCNCc4ccc(-c5ccccc5)cc4)CC3)c2c1  Plasmodium falciparum                 no
8  N#Cc1ccc(C(=O)Nc2ccc(-c3cccc(CN4CCCC4)c3)cc2)cc1  Plasmodium falciparum                 no

Moving on to the next compound.
In the record for N#Cc1ccc(CN2CCCN(Cc3cccc(NC(=O)c4cc5ccccc5s4)c3)CC2)cc1 , is XC50 less than 700 nM?
no

====

system: Plasmodium falciparum; test: GSK_TCMDC: Inhibition of Plasmodium falciparum 3D7 in whole erythrocytes, using parasite LDH activity as an index of growth.; assay type: functional, organism-based; conditions: Plasmodium falciparum, 3D7
experimental_readout: XC50 (nM)
Report the value in nM with no unit label.

Sample records with XC50:
>>> df
                                   molecule  result_value
0  CN(CCc1ccccn1)c1cccc2c1nc(-c1cccnc1)n2CCNCc1ccccc1          1060
1  CCCCCCn1c(Sc2ccc(C#N)c([N+](=O)[O-])c2)nnc1-c1cccc(Cl)c1           609
2  O=C1c2ccccc2CN1CCCN1CCC(Oc2ccc(F)cc2)CC1          1210
3  CC(C)CC1c2[nH]c3ccccc3c2CCN1C(=O)CCc1ccccc1 (stereo not given)           965
4  Cc1cc(NCCCOc2ccc(Cl)cc2)nc(NCc2ccccc2)n1           782
5  CCCC(C)N(Cc1ccc(C(C)(C)C)cc1)C(=O)c1cccc(C#N)c1 (stereo not given)          1050
6  O=c1cc(NCCCNCc2scc3c(Cl)cc(C(F)(F)F)nc23)[nH]c2ccccc12           754
7  Cc1cc(CN2CCC(C(=O)Nc3ccc(-c4nc5ccccc5[nH]4)cc3)CC2)oc1C          1450

Recorded XC50 for Cc1cc(=NN=Cc2cccc(Cl)c2)c2ccc(F)cc2[nH]1 , please?
240

Recorded XC50 for CC(Nc1nc(Nc2ccc(F)cc2)nc(SCC(N)=O)n1)c1ccccc1 (stereo not given) , please?
496
